Data origin: ChEMBL document CHEMBL1138774

Hi there, I'd appreciate the recorded IC50 for every entry that follows.
MEASURED_TARGET: Cathepsin K (Homo sapiens)
Sequence (P43235 whole entry): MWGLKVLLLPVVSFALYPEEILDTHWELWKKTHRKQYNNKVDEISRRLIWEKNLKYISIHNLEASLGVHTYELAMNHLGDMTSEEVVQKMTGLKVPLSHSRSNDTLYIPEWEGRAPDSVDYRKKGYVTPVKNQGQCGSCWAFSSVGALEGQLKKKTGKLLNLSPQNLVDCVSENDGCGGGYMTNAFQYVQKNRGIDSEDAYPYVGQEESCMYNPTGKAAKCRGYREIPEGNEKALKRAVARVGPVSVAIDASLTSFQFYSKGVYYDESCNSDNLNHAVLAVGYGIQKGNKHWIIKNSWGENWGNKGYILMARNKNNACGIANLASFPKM
RUN_DESCRIPTION: Inhibitory potency against human Cathepsin K
One number for each entry, in nM.

> print(dat)
                            smiles.notation             measured.target  observation.type  value.reported
1  CCCC[C@H](NC(=O)OCC1(CC)CCC1)C(=O)C(=O)Nc1ccnn1CC1CC1  Cathepsin K (Homo sapiens)              IC50              51

From here, focus on the item given below.
Query: So what does the record say about IC50 for "CCCC[C@H](NC(=O)OCC1(CC)COC1)C(=O)C(=O)N[C@H](C)c1ccccc1" ?
Reply: 68
